# ASSAY SYSTEM: T1, Human CD33 (human, UniProt P20138 18-364)
# T1 construct: One molecule is used for recombinant CD33 on HEK293AD/293 cells and for endogenous human CD33 on tumor or myeloid cells; the cell is named under assay; also called huCD33; hu CD33
# T1 sequence (P20138 18-364): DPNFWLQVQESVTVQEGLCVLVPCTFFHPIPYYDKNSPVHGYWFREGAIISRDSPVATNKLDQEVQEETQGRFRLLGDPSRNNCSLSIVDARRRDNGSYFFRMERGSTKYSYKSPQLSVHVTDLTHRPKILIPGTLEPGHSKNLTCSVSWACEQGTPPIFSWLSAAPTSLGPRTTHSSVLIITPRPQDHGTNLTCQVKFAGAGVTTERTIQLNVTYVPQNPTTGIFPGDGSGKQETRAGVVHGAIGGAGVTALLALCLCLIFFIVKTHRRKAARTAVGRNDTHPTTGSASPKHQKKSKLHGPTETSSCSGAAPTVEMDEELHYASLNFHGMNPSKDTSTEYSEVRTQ
# MEASUREMENT NOTES: Scatchard analysis, [125I]-labeled antibody competed by unlabeled antibody, Molm-13 cells (endogenous CD33)
A collection of binders and their measured Kd
// units = nM; emit number, no label

9C3 (antibody, V domains shown, atypical N-linked glycosylation site in the heavy chain between CDR2 and CDR3 at position 69 (kabat #)) VH: EVQLVESGGALIQPGGSLRLSCVASGFTISGNYMSWVRQAPGKGLEWVSLIYSGDSTYYADSVKGRFNISRDISKNTVYLQMNSLRVEDTAVYYCVRDGYYVSDMVVWGKGTTVTVSS VL: DIQMTQSPSSLSASVGDRVTITCRASQGIRNDLGWYQQKPGKAPKRLIYAASSLQSGVPSRFSGSGSGTEFTLTISSLQPEDFATYYCLQHNSYPWTFGQGTKLEIK = 5.8

# evaluate next
In plain terms, 9C3.2 (antibody, V domains shown, Variant of 9C3 with the heavy chain N-glycosylation site removed) VH: EVQLVESGGALIQPGGSLRLSCVASGFTISGNYMSWVRQAPGKGLEWVSLIYSGDSTYYADSVKGRFTISRDISKNTVYLQMNSLRVEDTAVYYCVRDGYYVSDMVVWGKGTTVTVSS VL: DIQMTQSPSSLSASVGDRVTITCRASQGIRNDLGWYQQKPGKAPKRLIYAASSLQSGVPSRFSGSGSGTEFTLTISSLQPEDFATYYCLQHNSYPWTFGQGTKLEIK has a documented Kd of 2
